assay: gradient 5% acetonitrile 3 min, to 50% in 2 min, to 85% in 15 min, held 3 min, 100 µL/min; conditions: column: Zorbax Extend-C18 2.1 x 50 mm; eluents: water / acetonitrile, 0.1% formic acid
Would you kindly list RP-LC retention time for each of these compounds?
Supply the numeric figure in s, leaving out any unit text.

Problem: Return reported RP-LC retention time. Input compound: COCCN1C(=O)c2ccccc2C(C(=O)Nc2ccc(OC)c(OC)c2)C12CCCC2 (stereo not drawn)
Result: 776

Problem: Return reported RP-LC retention time. Input compound: O=C(NCc1ccc2c(c1)OCO2)C(=O)NCC1CCN(S(=O)(=O)C2CC2)CC1
Result: 711

Problem: Return reported RP-LC retention time. Input compound: CCCCC(=O)N1CCc2c(c(C(=O)N3CCCC(C(=O)Nc4ccccc4C)C3)nn2C)C1 (stereo not drawn)
Result: 797
